# assay-summary: Ratio of antinociceptive activity measured using mouse acetylcholine induced abdominal constriction test by s.c. administration to that done by i.c.v.
# Format: functional, Abdomen
Assign class 1 whenever Ratio does not fall below 200; assign class 0 whenever it does.

Item CC(=O)N1CCN(C(=O)Cc2ccc(C(F)(F)F)cc2)C(CN2CC[C@H](O)C2)C1 (some centres not stated) with Ratio of 200 or above? class 0

Please do the same for COC(=O)N1CCN(C(=O)Cc2ccc(Cl)c(Cl)c2)[C@H](CN2CCCC2)C1 as well. class 0

Please do the same for CSc1ccc(CC(=O)N2CCN(C(C)=O)CC2CN2CC[C@H](O)C2)cc1 (some centres not stated) as well. class 0

Please do the same for CC(=O)N1CCN(C(=O)Cc2ccc(Cl)c(Cl)c2)C(CN2CC[C@H](O)C2)C1 (some centres not stated) as well. class 0

Please do the same for CC(=O)N1CCN(C(=O)Cc2ccc(S(C)(=O)=O)cc2)C(CN2CC[C@H](O)C2)C1 (some centres not stated) as well. class 1

Please do the same for CC(=O)N1CCN(C(=O)Cc2cc(F)cc(F)c2)C(CN2CC[C@H](O)C2)C1 (some centres not stated) as well. class 1
